Test system: SF-539 CNS
assay procedure: NCI tumour cell line growth inhibition, 48 h
I'd be grateful if you could share measured TGI for these entries.

Suppose we examine the compound NCC(NC(=O)OCc1ccccc1)C(=O)O (configuration not stated) ; what TGI value has been reported?
> 50 µM

Given the entry c1ccc2c(c1)nc1n2CSC1 , report its measured TGI.
> 100 µM

Bench note: what TGI did C[C@H]1CC(=O)C2=CCCC3(SCCCS3)[C@@H]2[C@H]1CO show?
> 100 µM

What value of TGI has been reported for the following compound? COC(=O)C(Cc1ccccc1I)C1=CCC2(CC1)OCCO2 (configuration not stated)
> 100 µM

// returns reported TGI for input Cc1nc2ccccc2c(=O)n1CC(=O)O
> 100 µM

Any idea what its TGI is? The compound is CC(=O)OCC1OC(OC2=C(CC=C(Cl)Cl)C(=O)c3ccccc3C2=O)C(OC(C)=O)C(OC(C)=O)C1OC(C)=O (configuration not stated)
14.6 µM

Look at this compound and give its reported TGI. c1ccc(-c2nn(-c3ccccc3)[n+](-c3cccc4ccccc34)n2)cc1
27.7 µM

For the compound shown here, O=C(Nc1ccccc1Br)c1cccc([N+](=O)[O-])c1O , give the reported TGI.
35 µM

// lookup TGI for COc1ccc2c(c1)nc1n2C(c2c(F)cccc2Cl)SC1 (configuration not stated)
16.1 µM

For the compound Cc1ccc2c(c1)[nH]c(=S)n2C=C1C(=O)CC(C)(C)CC1=O , what TGI is on record?
> 100 µM

Which TGI value is on record for CC(C)=CC(=O)OC1C2C(C)C(=O)OC2C(O)C(C)C2C=CC(=O)C21C (configuration not stated) ?
9.5 µM

State the recorded TGI for this entry: CC1(C)C(=S)C(C)(C)C1=S
> 100 µM

Fill blank: measured TGI of the compound NC(=S)N1N=C2c3ccccc3CC[C@H]2[C@@H]1c1cccs1 is ____.
> 100 µM

Please look up its TGI: CCC[CH2][Sn]([CH2]CCC)([O]C(=O)c1nccnc1N)[O]C(=O)c1nccnc1N
2.3 µM

I'd like to know its TGI. The compound in question is CCOC(=O)c1cc(C2CCN(Cc3ccccc3)C2=O)c(C(=O)C(=[N+]=[N-])C(C)=O)[nH]1 (configuration not stated)
> 100 µM

Would you kindly share the measured TGI for O=C(/C=C(\Nc1ccccc1O)c1ccccc1)C(=O)NC12CC3CC(CC(C3)C1)C2 ?
> 10 µM

Tell me the measured TGI of COc1ccc([N-]/C(=N\n2c(=O)c(C)nn(C)c2=S)N(c2ccc(OC)cc2)c2nn3c(=O)c(C)n[n+](C)c3s2)cc1 , please.
> 100 µM

Returns the measured TGI for the input compound. Input: COc1cc2c3c(n(C)c(=O)c2cc1OC)-c1cc2c(cc1/C3=C\CCCBr)OCO2
> 41.6 µM

Request the reported TGI associated with CSc1ccc2c(cc1=O)C(NC(=O)c1ccc(OC(C)=O)cc1)CCc1cc(O)c(O)c(O)c1-2 (configuration not stated)
40.1 µM

I'd like to know its TGI. The compound in question is COc1ccc(C2=NN(c3ccccc3)C(c3cc4cc(Br)ccc4nc3Cl)C2)cc1 (configuration not stated)
> 25 µM

What does the record list as TGI for O=C(CCCc1ccccn1)c1ccccc1 ?
> 100 µM

Fill in the blank: the reported TGI of CSc1nc2c(N)ncnc2n1C is ____.
> 100 µM
